- System: MS2 coat protein
- assay: apparent Kd, MS2 coat protein; higher = weaker binding; RNA-MaP array; FMN 200 µM where present
- measurement_setup: ligand present: flavin mononucleotide; designed as: OFF switch for flavin mononucleotide
// reported apparent Kd per item
quantity_kind: apparent Kd (nM)

INSERT INTO assay_data (polymer_sequence, observed_measurement) VALUES
  ('GUCAGACGAGGAUAUAGAUUUAAGUACAUGAGGAUCACCCAUGUACACAUGUAUUUAGAUUUAGAAGGCGUCUGAC', 700),
  ('UAAGACUAGCAUUGGUAUCUCCACAUGAGGAUCACCCAUGUCUAGGAUAUGAGCAGCAAAGCUGCUUAGAAGGAGACGCUAGUC', 12.6),
  ('CGAUAACAUAGUUAUCCGUAACGUACAUGAGGAUCACCCAUGUAGGAUAUGUUACUAAACUAGUAACAGAAGGACAUGAGUAUU', 315),
  ('UUGUUGUAUGUAGGAUAUGCGUAUUAUUAUUAUGCAGAAGGACAUGAGGAUCACCCAUGUAUAUUAUUAUUAUAUGUUAUAUAU', 36.3),
  ('CAACCGUUGCAGAAGGUUAAAUAUAUCAACUUAUGGACAACAUGAGGAUCACCCAUGUUUUUGUUGAAGGAUAUGCAAGGGUUG', 5.71),
  ('UAUGAGCGAGGAUAUGCUUGGGACUGUCGGAAUGUGGCGGGACAUGAGGAUCACCCAUGUAGAAGGCGCGAGCG', 212),
  ('ACAUGAGGAUCACCCAUGUAUUUGUAGGAUAUACUGUAUUGUUUAUUACUCUAAUUAAUAUGUUUGUAGAAGGACAUUGCAUGA', 9.86),
  ('AGUUCUUGUGAAGGAUAUACGGCGGGUCGCGCAGUAGAAGGUCACAUGAGGAUCACCCAUGUCGACAUUGUGCAGUAUCGACAA', 465),
  ('AAUGUCUGAGGAUAUCGUUUUUUGUACAUGAGGAUCACCCAUGUUUUAUUUUGUAUAUUACGAGAAGGCAGUGGAA', 18.5);
